Measured cell survival rate lower than that of YK-108, listed per entry.
Tested on: 293T cells
Test: Cell survival rate determination (CCK-8)
Assay type: cell-based
Conditions: cell survival rate of YK-108 minus that of named substance
The figure you give is taken to be in %; do not add the unit.

Entry CCCCCCCCCCOC(=O)CCCN(CCCCCC(=O)OCCC(CCCCCC)CCCCCC)CC(O)CO (centres unmarked) [YK-114] has what cell survival rate lower than that of YK-108?
21.53

Field entry: CCCCCCCCCCOC(=O)CCCN(CCCCCC(=O)OCCC(CCCCCC)CCCCCC)CCOC(=O)CCCN(C)C [YK-125]
54.47

Queued: CCCCCCCCCCOC(=O)CCCN(CCCCCC(=O)OCCC(CCCCCC)CCCCCC)C[C@H](O)CO [YK-116]
21.90

Similarly, CCCCCCCCCCCOC(=O)CCCCCN(CCO)CCCCCCCC(=O)OC(CCCCCCCC)CCCCCCCC [SM-102, reference compound] ?
21.69

Quick one: CCCCCCCCCCOC(=O)CCCN(CCCCCC(=O)OCCC(CCCCCC)CCCCCC)CCOCCO [YK-123]
13.18

These entries and their values trace back to patent US20260008746A1.
